B1: Ankyrin-2, residues 3571 to 3650; numbered along this chain, Q01484 (parent)
chain: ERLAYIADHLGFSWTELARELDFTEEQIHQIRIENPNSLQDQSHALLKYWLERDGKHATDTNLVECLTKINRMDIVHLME

Variants of: B1
Test: abundance fitness (aPCA) (normalised: wild type 0, dead -1); higher = more abundant; growth selection in yeast, the domain comes from the species named
Conditions: Homo sapiens
Decide using abundance fitness: a value greater than or equal to -0.2 is 1.0, a smaller one is 0.0.

SEQUENCE VARIANT | LABEL CLASS
R32S | 1.0

Prompt line: Is abundance fitness for W50Y at or above -0.2?
Response line: 1.0

Prompt line: Consider next the variant L10Y in the same way.
Response line: 0.0

src = the Human Domainome abundance scans (Beltran et al. 2025)
